B1: Thioredoxin, P80579 (parent)
chain: ATMTLTDANFQQAIQGDKPVLVDFWAAWCGPCRMMAPVLEEFAEAHADKVTVAKLNVDENPETTSQFGIMSIPTLILFKGGRPVKQLIGYQPKEQLEAQLADVLQ

# Variants of: B1
# run.conditions: Alicyclobacillus acidocaldarius subsp. acidocaldarius; pH 7; Urea; CD; Sodium phosphate 10 mM; reversible: yes; structure 1QUW; whole UniProt chain shown
readout.type: denaturant midpoint (higher = more stable) (M)

In [3]: df
Out[3]:
                                   sequence  result_number
0  ATMTLTDANFQQAIQGDKPVLVDFWAAWCGPCRMMAPVLEEFAEAHADKVTVAKLNVDENPETTSQFGIMSIPTLILFKGGRPVKQLIGYQPKEQLEAQLAXVLQ [D102X]              4
1  ATMTLTDANFQQAIQGDGPVLVDFWAAWCGPCRMMAPVLEEFAEAHADKVTVAKLNVDENPETTSQFGIMSIPTLILFKGGRPVKQLIGYQPKEQLEAQLADVLQ [K18G]            5.2
2  ATMTLTDANFQQAIQGDGPVLVDFWAAWCGPCRMMAPVLEEFAEAHADKVTVAKLNVDENPETTSQFGIMSIPTLILFKGGEPVKQLIGYQPKEQLEAQLADVLQ [K18G R82E]            4.6
3  ATMTLTDANFQQAIQGDKPVLVDFWAAWCGPCRMMAPVLEEFAEAHADKVTVAKLNVDENPETTSQFGIMSIPTLILFKGGEPVKQLIGYQPKEQLEAQLADVLQ [R82E]            5.5

Reference source for all entries: FireProtDB
